assay: Toxicokinetic evaluation of 14-day repeated intragastric administration to SD rats; type: in vivo; conditions: both sexes, SD, rat, plasma, po, 0.5 mg/kg, repeated intragastric 0.5 mg/kg, Day 1, read-out: Plasma concentration Cmax

Compound | Cmax [ng/mL]
CC(C)n1c(=O)cc(N[C@@H](C)c2ccccc2)[nH]c1=O [MYK-461, reference compound] | 40.2

---

test: Toxicokinetic evaluation of 14-day repeated intragastric administration to SD rats; assay type: in vivo; details: both sexes, SD, rat, plasma, po, 1.5 mg/kg, repeated intragastric 1.5 mg/kg, Day 1, read-out: Half-life T1/2 (converted)
Endpoint label: half-life at 1 day (h)

Compound | Endpoint label | Unit tag | Assay value
CC(C)n1c(=O)cc(N[C@@H](C)c2ccccc2)[nH]c1=O [MYK-461, reference compound] | half-life at 1 day | h | 19.1

Data credit: patent US20240010639A1
